We begin with a simple list: items and their reported molar heat capacity at constant pressure.
# procedure-text: molar heat capacity at constant pressure
# measurement-conditions: 224.15 K; 101.33 kPa; Crystal; Small sample (50 mg) DSC
Write the answer as a number in J/K/mol, unit excluded.

So what does the record say about molar heat capacity at constant pressure for OC[C@@H](O)[C@@H](O)CO ?
125.9

So what does the record say about molar heat capacity at constant pressure for OC[C@@H](O)C(O)[C@H](O)CO ?
151.3

So what does the record say about molar heat capacity at constant pressure for OC[C@@H](O)[C@@H](O)[C@H](O)[C@H](O)CO ?
175.72

----------
# procedure-text: molar heat capacity at constant pressure
# measurement-conditions: 219.15 K; 101.33 kPa; Crystal; Small sample (50 mg) DSC
recorded-metric: molar heat capacity at constant pressure (J/K/mol)
Write the answer as a number in J/K/mol, unit excluded.

Use these answered entries as a reference point.
O[C@H]1[C@H](O)[C@@H](O)[C@H](O)[C@@H](O)[C@H]1O [cis-1,2,3,5-trans-4,6-cyclohexanehexol]: 158
OC[C@@H](O)[C@@H](O)[C@H](O)[C@H](O)CO: 171.88
OC[C@H](O)C(O)[C@@H](O)CO [L-(-)-arabitol]: 152.76
OC[C@@H](O)[C@H](O)[C@@H](O)CO: 154.13
OC[C@@H](O)C(O)[C@H](O)CO: 147.64

So what does the record say about molar heat capacity at constant pressure for OC[C@@H](O)[C@@H](O)CO ?
123.25

----------
# measurement-conditions: 280 K; 101.33 kPa; Crystal; relaxation calorimetry
Numbers after ± are expanded uncertainties.
We begin with a simple list: items and their reported molar entropy.
Give your result as the value with the unit written after it.

OC[C@@H](O)[C@@H](O)[C@H](O)[C@H](O)CO [D-mannitol]: 212.96 ± 20 J/K/mol
OC[C@@H](O)[C@@H](O)CO [meso-1,2,3,4-butanetetrol]: 155.38 ± 14 J/K/mol
OC[C@@H](O)[C@H](O)[C@@H](O)CO [xylitol]: 185.53 ± 17 J/K/mol

So what does the record say about molar entropy for O[C@H]1[C@H](O)[C@@H](O)[C@H](O)[C@@H](O)[C@H]1O [cis-1,2,3,5-trans-4,6-cyclohexanehexol] ?
184.87 ± 17 J/K/mol

So what does the record say about molar entropy for OC[C@@H](O)C(O)[C@H](O)CO [D-arabitol] ?
187.46 ± 17 J/K/mol

So what does the record say about molar entropy for OC[C@H](O)C(O)[C@@H](O)CO [L-(-)-arabitol] ?
189.34 ± 17 J/K/mol

----------
# measurement-conditions: 7 K; 101.33 kPa; Crystal; relaxation calorimetry
Please respond with rule met when measured molar entropy is strictly beneath 0.1 J/K/mol, and with rule not met in all other cases.

OC[C@@H](O)C(O)[C@H](O)CO [D-arabitol]: rule met
OC[C@@H](O)[C@@H](O)[C@H](O)[C@H](O)CO [D-mannitol]: rule not met
O[C@H]1[C@H](O)[C@@H](O)[C@H](O)[C@@H](O)[C@H]1O [cis-1,2,3,5-trans-4,6-cyclohexanehexol]: rule not met
OC[C@H](O)C(O)[C@@H](O)CO [L-(-)-arabitol]: rule met

Next:
Does the reported molar entropy of OC[C@@H](O)[C@@H](O)CO [meso-1,2,3,4-butanetetrol] stay below 0.1 J/K/mol?
rule met

----------
# procedure-text: molar heat capacity at constant pressure
# measurement-conditions: 300.15 K; 101.33 kPa; Crystal; Small sample (50 mg) DSC
Label scheme for molar heat capacity at constant pressure: lower than 200 J/K/mol is false, 200 J/K/mol and above is true.

OC[C@@H](O)[C@@H](O)CO: false
O[C@H]1[C@H](O)[C@@H](O)[C@H](O)[C@@H](O)[C@H]1O [cis-1,2,3,5-trans-4,6-cyclohexanehexol]: true
OC[C@@H](O)[C@@H](O)[C@H](O)[C@H](O)CO: true
OC[C@@H](O)[C@H](O)[C@@H](O)CO: true

Textbook exercise: given the entry OC[C@H](O)C(O)[C@@H](O)CO [L-(-)-arabitol] , state whether its molar heat capacity at constant pressure is greater than or equal to 200 J/K/mol.
true

----------
# procedure-text: molar heat capacity at constant pressure
# measurement-conditions: 275.15 K; 101.33 kPa; Crystal; Small sample (50 mg) DSC
Label scheme for molar heat capacity at constant pressure: lower than 200 J/K/mol is not satisfied, 200 J/K/mol and above is satisfied.

Observe how each entry below is paired with its result.
OC[C@@H](O)[C@@H](O)[C@H](O)[C@H](O)CO [D-mannitol]: satisfied
OC[C@@H](O)[C@@H](O)CO [meso-1,2,3,4-butanetetrol]: not satisfied
OC[C@@H](O)C(O)[C@H](O)CO [D-arabitol]: not satisfied

Textbook exercise: given the entry OC[C@@H](O)[C@H](O)[C@@H](O)CO [xylitol] , state whether its molar heat capacity at constant pressure is greater than or equal to 200 J/K/mol.
not satisfied

Textbook exercise: given the entry OC[C@H](O)C(O)[C@@H](O)CO [L-(-)-arabitol] , state whether its molar heat capacity at constant pressure is greater than or equal to 200 J/K/mol.
not satisfied

----------
# procedure-text: molar heat capacity at constant pressure
# measurement-conditions: 244.15 K; 101.33 kPa; Crystal; Small sample (50 mg) DSC
recorded-metric: molar heat capacity at constant pressure (J/K/mol)
Write the answer as a number in J/K/mol, unit excluded.

Use these answered entries as a reference point.
OC[C@@H](O)[C@@H](O)CO [meso-1,2,3,4-butanetetrol]: 135.91
OC[C@H](O)C(O)[C@@H](O)CO [L-(-)-arabitol]: 168.75
OC[C@@H](O)[C@H](O)[C@@H](O)CO [xylitol]: 170.79
OC[C@@H](O)C(O)[C@H](O)CO [D-arabitol]: 163.71

So what does the record say about molar heat capacity at constant pressure for OC[C@@H](O)[C@@H](O)[C@H](O)[C@H](O)CO [D-mannitol] ?
190.16

So what does the record say about molar heat capacity at constant pressure for O[C@H]1[C@H](O)[C@@H](O)[C@H](O)[C@@H](O)[C@H]1O [cis-1,2,3,5-trans-4,6-cyclohexanehexol] ?
176.84

----------
# procedure-text: molar heat capacity at constant pressure
# measurement-conditions: 335.15 K; 101.33 kPa; Crystal; Small sample (50 mg) DSC
We begin with a simple list: items and their reported molar heat capacity at constant pressure.
Write the answer as a number in J/K/mol, unit excluded.

Use these answered entries as a reference point.
O[C@H]1[C@H](O)[C@@H](O)[C@H](O)[C@@H](O)[C@H]1O [cis-1,2,3,5-trans-4,6-cyclohexanehexol]: 250.35
OC[C@@H](O)[C@@H](O)CO: 187.33
OC[C@@H](O)[C@@H](O)[C@H](O)[C@H](O)CO: 263.13

So what does the record say about molar heat capacity at constant pressure for OC[C@@H](O)[C@H](O)[C@@H](O)CO ?
240.54

So what does the record say about molar heat capacity at constant pressure for OC[C@@H](O)C(O)[C@H](O)CO ?
235.21

----------
# procedure-text: molar heat capacity at constant pressure
# measurement-conditions: 289.15 K; 101.33 kPa; Crystal; Small sample (50 mg) DSC
Please respond with label 1 when measured molar heat capacity at constant pressure is strictly beneath 200 J/K/mol, and with label 0 in all other cases.

OC[C@@H](O)[C@@H](O)[C@H](O)[C@H](O)CO: label 0
OC[C@@H](O)[C@@H](O)CO: label 1

Next:
Does the reported molar heat capacity at constant pressure of O[C@H]1[C@H](O)[C@@H](O)[C@H](O)[C@@H](O)[C@H]1O [cis-1,2,3,5-trans-4,6-cyclohexanehexol] stay below 200 J/K/mol?
label 0

----------
# procedure-text: molar heat capacity at constant pressure
# measurement-conditions: 250 K; 101.33 kPa; Crystal; relaxation calorimetry
Numbers after ± are expanded uncertainties.
recorded-metric: molar heat capacity at constant pressure
Give your result as the value with the unit written after it.

Use these answered entries as a reference point.
OC[C@H](O)C(O)[C@@H](O)CO [L-(-)-arabitol]: 173.24 ± 11 J/K/mol
OC[C@@H](O)[C@@H](O)[C@H](O)[C@H](O)CO: 195.26 ± 12 J/K/mol
O[C@H]1[C@H](O)[C@@H](O)[C@H](O)[C@@H](O)[C@H]1O [cis-1,2,3,5-trans-4,6-cyclohexanehexol]: 181.94 ± 11 J/K/mol

So what does the record say about molar heat capacity at constant pressure for OC[C@@H](O)[C@@H](O)CO ?
140.29 ± 8.6 J/K/mol

So what does the record say about molar heat capacity at constant pressure for OC[C@@H](O)[C@H](O)[C@@H](O)CO ?
174.1 ± 11 J/K/mol

So what does the record say about molar heat capacity at constant pressure for OC[C@@H](O)C(O)[C@H](O)CO ?
170.71 ± 10 J/K/mol

Cited source: the NIST ThermoML archive (doi:10.1016/j.jct.2017.08.004)
